Where do the numbers come from? From PubChem BioAssay AID1963421.

Tested on: 519858-162-T-J1-PDC complex spheroid growth, % test/control
Experiment: Anticancer human tumor 519858-162-T-J1-PDC patient-derived colon adenocarcinoma cell line growth inhibition [Asc]
Conditions: second compound 1 µM; first compound 0.0316 µM; hits give low values
Text: Multicellular complex tumor spheroid response to apoptosis pathway targeting inhibitors Alrizomadlin, Pelcitoclax, and Dasminapant in combination with a variety of drugs and investigational agents in selected tumor cell lines […] Compounds. […] If the clinical Cmax for an agent had not been determined, the highest concentration tested was 10 microM. […]
parameter: viability, T/C (%)
Field: numeric (%). Do not append units.

As a guide, the following entries are already answered.
>  <compound>
NC1CCC(NC2CC2c2ccccc2)CC1 (stereo not drawn) + CNC(C)C(=O)NC1CN(S(=O)(=O)c2cccc(S(=O)(=O)N3CCC4CCC(C(=O)NC(c5ccccc5)c5ccccc5)N4C(=O)C(NC(=O)C(C)NC)C3)c2)CCC2CCC(C(=O)NC(c3ccccc3)c3ccccc3)N2C1=O

>  <subject of test>
519858-162-T-J1-PDC complex spheroid growth, % test/control

>  <parameter>
viability, T/C

>  <value>
85.8

$$$$
>  <compound>
C#Cc1c(F)ccc2cc(O)cc(-c3ncc4c(N5CC6CCC(C5)N6)nc(OCC56CCCN5CC(F)C6)nc4c3F)c12 (stereo not drawn) + Cc1c(S(C)(=O)=O)c(-c2cc(F)cc(N3CCN(c4ccc(NS(=O)(=O)c5ccc(NC(CCN6CCC(C(=O)OCCCP(=O)(O)O)CC6)CSc6ccccc6)c(S(=O)(=O)C(F)(F)F)c5)cc4)CC3)c2)c(-c2ccc(Cl)cc2)n1C(C)C

>  <subject of test>
519858-162-T-J1-PDC complex spheroid growth, % test/control

>  <parameter>
viability, T/C

>  <value>
84.4

$$$$

Next item in the queue.
Input line: Lab request: please report viability, T/C under test system 519858-162-T-J1-PDC complex spheroid growth, % test/control for CCN1CCN(Cc2ccc(Nc3ncc(F)c(-c4cc(F)c5nc(C)n(C(C)C)c5c4)n3)nc2)CC1 + Cc1c(S(C)(=O)=O)c(-c2cc(F)cc(N3CCN(c4ccc(NS(=O)(=O)c5ccc(NC(CCN6CCC(C(=O)OCCCP(=O)(O)O)CC6)CSc6ccccc6)c(S(=O)(=O)C(F)(F)F)c5)cc4)CC3)c2)c(-c2ccc(Cl)cc2)n1C(C)C
Output line: 62.6

====

System: 519858-162-T-J1-PDC complex spheroid growth, % test/control
Experiment: Anticancer human tumor 519858-162-T-J1-PDC cell line growth inhibition [Asc];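 note: seven day drug exposure begun three days after spheroid seeding; 100% = DMSO vehicle wells and lower values mean less viable spheroid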
Conditions: second compound 1 µM; first compound 0.1 µM; hits give low values
viability, T/C values for the molecules below.
Number in %, nothing else.

>  <molecule>
NC1CCC(NC2CC2c2ccccc2)CC1 (stereo not drawn) + CNC(C)C(=O)NC1CN(S(=O)(=O)c2cccc(S(=O)(=O)N3CCC4CCC(C(=O)NC(c5ccccc5)c5ccccc5)N4C(=O)C(NC(=O)C(C)NC)C3)c2)CCC2CCC(C(=O)NC(c3ccccc3)c3ccccc3)N2C1=O

>  <viability, T/C / %>
80.3

$$$$
>  <molecule>
CCN1CCN(Cc2ccc(Nc3ncc(F)c(-c4cc(F)c5nc(C)n(C(C)C)c5c4)n3)nc2)CC1 + CNC(C)C(=O)NC1CN(S(=O)(=O)c2cccc(S(=O)(=O)N3CCC4CCC(C(=O)NC(c5ccccc5)c5ccccc5)N4C(=O)C(NC(=O)C(C)NC)C3)c2)CCC2CCC(C(=O)NC(c3ccccc3)c3ccccc3)N2C1=O

>  <viability, T/C / %>
80.1

$$$$

Shift focus to the following entry.
Input line: Could you tell me which viability, T/C is on file for NC1CCC(NC2CC2c2ccccc2)CC1 (stereo not drawn) + Cc1c(S(C)(=O)=O)c(-c2cc(F)cc(N3CCN(c4ccc(NS(=O)(=O)c5ccc(NC(CCN6CCC(C(=O)OCCCP(=O)(O)O)CC6)CSc6ccccc6)c(S(=O)(=O)C(F)(F)F)c5)cc4)CC3)c2)c(-c2ccc(Cl)cc2)n1C(C)C ?
Output line: 77.9
